Property: IC50; scope: individual molecules
TARGET_OR_TEST_SYSTEM: Recombinant human KIF18A (1-467 His-tagged) protein (Homo sapiens (Human))
Sequence (Q8NI77 1-467): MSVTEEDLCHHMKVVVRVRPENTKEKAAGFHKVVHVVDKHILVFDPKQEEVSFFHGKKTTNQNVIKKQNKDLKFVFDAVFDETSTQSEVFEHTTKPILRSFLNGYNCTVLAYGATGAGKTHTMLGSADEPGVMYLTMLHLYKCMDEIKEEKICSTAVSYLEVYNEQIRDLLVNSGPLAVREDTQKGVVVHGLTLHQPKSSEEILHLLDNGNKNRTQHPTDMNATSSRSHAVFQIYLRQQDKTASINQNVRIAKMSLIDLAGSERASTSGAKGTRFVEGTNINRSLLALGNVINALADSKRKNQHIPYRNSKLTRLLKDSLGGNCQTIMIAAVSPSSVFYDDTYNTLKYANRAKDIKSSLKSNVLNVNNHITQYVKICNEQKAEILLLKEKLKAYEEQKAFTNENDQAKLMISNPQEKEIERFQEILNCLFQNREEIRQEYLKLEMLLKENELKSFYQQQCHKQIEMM
Sequence (P02550 whole entry partner): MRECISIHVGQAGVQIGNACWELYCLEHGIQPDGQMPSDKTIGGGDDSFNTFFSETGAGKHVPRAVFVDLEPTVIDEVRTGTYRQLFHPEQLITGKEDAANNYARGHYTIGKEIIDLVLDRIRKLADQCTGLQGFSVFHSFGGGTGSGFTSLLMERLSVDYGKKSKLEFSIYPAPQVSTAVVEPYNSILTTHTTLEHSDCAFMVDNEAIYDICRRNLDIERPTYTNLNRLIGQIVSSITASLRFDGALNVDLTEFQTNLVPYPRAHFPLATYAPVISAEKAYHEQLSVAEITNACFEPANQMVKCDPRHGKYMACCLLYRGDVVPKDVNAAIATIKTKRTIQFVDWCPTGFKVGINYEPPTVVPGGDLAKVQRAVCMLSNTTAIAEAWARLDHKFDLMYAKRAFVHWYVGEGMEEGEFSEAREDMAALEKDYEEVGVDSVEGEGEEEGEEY
Sequence (P02554 whole entry partner): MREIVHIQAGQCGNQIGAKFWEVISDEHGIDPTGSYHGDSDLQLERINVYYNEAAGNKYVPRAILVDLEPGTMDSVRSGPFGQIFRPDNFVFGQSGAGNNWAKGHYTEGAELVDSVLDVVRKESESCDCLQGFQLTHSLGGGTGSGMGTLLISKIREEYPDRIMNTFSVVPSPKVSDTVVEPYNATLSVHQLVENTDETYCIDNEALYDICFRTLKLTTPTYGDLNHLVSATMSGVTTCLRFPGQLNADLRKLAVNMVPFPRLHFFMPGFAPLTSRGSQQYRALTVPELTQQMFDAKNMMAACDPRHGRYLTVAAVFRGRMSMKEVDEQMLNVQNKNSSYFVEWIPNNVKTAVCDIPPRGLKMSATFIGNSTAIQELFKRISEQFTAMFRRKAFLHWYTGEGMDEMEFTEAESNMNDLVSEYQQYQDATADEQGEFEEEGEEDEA
TEST_NAME: KIF18A Enzyme Assay: microtubule-stimulated ATPase activity (ADP-Glo)
STATED_CONDITIONS: read-out: KIF18A ATPase IC50; 30 nM KIF18A, 30 μg/mL pig microtubules, ATP at Km 75 μM, ADP-Glo luminescence
Reply with just the number (in nM).

Worked set:
[
  {
    "COMPOUND_SMILES": "C[C@@H]1CN(c2nccc(NC(=O)c3ccc(NS(=O)(=O)CCO)cc3N3CCC4(CC3)CC4)n2)CCO1",
    "SCALE_UNIT": "nM",
    "IC50": 32
  },
  {
    "COMPOUND_SMILES": "COCCS(=O)(=O)Nc1ccc(C(=O)Nc2cc(C)nc(N3CCC(F)(F)CC3)n2)c(N2CCC3(CC2)CC3)c1",
    "SCALE_UNIT": "nM",
    "IC50": 32
  },
  {
    "COMPOUND_SMILES": "CC(C)(O)c1cc(NC(=O)c2ccc(NS(=O)(=O)CCO)cc2N2CCC3(CC2)CC3)nc(N2CCC(F)(F)CC2)n1",
    "SCALE_UNIT": "nM",
    "IC50": 125
  }
]

(Q) So what does the record say about IC50 for `Cc1cc(NC(=O)c2ccc([S@@](=N)(=O)C3CC3)cc2N2CCC3(CC2)CC3)nc(N2CCO[C@H](C)C2)n1` ?
(A) 78

###

Property: pIC50; scope: individual compounds
TARGET_OR_TEST_SYSTEM: Recombinant human KIF18A (1-467 His-tagged) protein (Homo sapiens (Human))
TEST_NAME: KIF18A Enzyme Assay: microtubule-stimulated ATPase activity (ADP-Glo)
STATED_CONDITIONS: read-out: KIF18A ATPase IC50; 30 nM KIF18A, 30 μg/mL pig microtubules, ATP at Km 75 μM, ADP-Glo luminescence
By convention, pIC50 is the negative base-10 log of a molar concentration.

(Q) Provide the documented pIC50 with Recombinant human KIF18A (1-467 His-tagged) protein (Homo sapiens (Human)) as the system for Cc1cc(NC(=O)c2ccc(NS(=O)(=O)CCO)cc2N2CCC3(CC2)CC3)nc(N2CCC[C@H](O)C2)n1 [Example 11-53]
(A) 6.98

(Q) Same question, Cc1cc(NC(=O)c2ccc(S(=O)(=O)NC3(C)COC3)cc2N2CCC3(CC2)CC3)nc(N2CCO[C@H](C)C2)n1 [Example 2-3] this time
(A) 6.94

(Q) Same question, Cc1cc(NC(=O)c2ccc(NS(C)(=O)=O)cc2N2CCC3(CC2)CC3)nc(N2CC(F)(F)C2)n1 [Example 11-24] this time
(A) 7.26

(Q) Same question, Cc1cc(NC(=O)c2cc(Cl)c(NS(=O)(=O)CCO)cc2N2CCC3(CC2)CC3)nc(N2CCC(F)(F)CC2)n1 [Example 6-34] this time
(A) 7.04

(Q) Same question, Cc1cc(NC(=O)c2ccc(NS(=O)(=O)[C@@H](C)CO)cc2N2CCC3(CC2)CC3)nc(N2CC(F)(F)C2)n1 [Example 11-77] this time
(A) 7.47

(Q) Same question, Cc1cc(NC(=O)c2ccc(NS(=O)(=O)CCO)cc2N2CCC3(CC2)CC3)nc(N2CCC3C[C@]3(O)C2)n1 (stereo partly shown) [Example 11-42] this time
(A) 7.47

(Q) Same question, CC[S@@](=N)(=O)c1ccc(C(=O)Nc2cc(C)nc(N3CCC(F)(F)CC3)n2)c(N2CCC3(CC2)CC3)c1 [Example 19-3] this time
(A) 7.11
